Values were extracted from the supplement of paper PMC6992640.

System: HCI09 (cells of a triple-negative luminal androgen receptor type breast cancer xenograft);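 further: PDX cells carrying CMV promoter-driven luciferase, viability read as total photon flux per second by IVIS imaging following D-luciferin, vehicle control 0.1% DMSO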
measurement.description: cell viability (% of vehicle); higher = less cytotoxic
settings: 10 µM; 72 h
assay.endpoint: cell viability
Give the figure by itself; no unit, no explanation.

The examples below pair each entry with its known result.
{"molecule": "CC(=O)Oc1ccccc1C(=O)Nc1ncc([N+](=O)[O-])s1 [Nitazoxanide]", "cell viability": 161}
{"molecule": "CSc1ccc2c(c1)N(CCC1CCCCN1C)c1ccccc1S2.Cl (centres undefined) [Thioridazine HCl]", "cell viability": 26.4}
{"molecule": "C=C(c1ccc(C(=O)O)cc1)c1cc2c(cc1C)C(C)(C)CCC2(C)C", "cell viability": 98.5}

# context switch: different molecule, same cell viability
Give cell viability (HCI09) of the following molecule: CC(Oc1cc(-c2cnn(C3CCNCC3)c2)cnc1N)c1c(Cl)ccc(F)c1Cl [(R)-Crizotinib]
24.8
